- target_system: P2Y purinoceptor 2 (Homo sapiens)
- Sequence (P41231 whole entry): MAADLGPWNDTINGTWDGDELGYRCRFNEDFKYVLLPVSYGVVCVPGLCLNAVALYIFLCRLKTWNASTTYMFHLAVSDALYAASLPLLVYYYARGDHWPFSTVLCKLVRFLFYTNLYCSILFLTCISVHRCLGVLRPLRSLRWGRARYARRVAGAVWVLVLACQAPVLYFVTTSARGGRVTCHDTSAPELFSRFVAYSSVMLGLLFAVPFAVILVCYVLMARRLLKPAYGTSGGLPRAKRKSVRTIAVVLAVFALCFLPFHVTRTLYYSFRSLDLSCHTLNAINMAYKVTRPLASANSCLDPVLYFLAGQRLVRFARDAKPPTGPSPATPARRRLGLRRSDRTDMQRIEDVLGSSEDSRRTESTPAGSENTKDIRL
- protocol_description: Agonist activity at P2Y2 receptor expressed in human 1321 cells by calcium mobilization assay
endpoint: EC50 (µM)
A number alone suffices; assume µM.

molecule	unit_info	EC50
O=C(Nc1ccc(F)cc1)Nc1ccn([C@@H]2O[C@H](COP(=O)(O)OP(=O)(O)OP(=O)(O)OP(=O)(O)OC[C@@H]3O[C@H](n4ccc(=O)[nH]c4=O)[C@@H](O)[C@H]3O)[C@@H](O)[C@H]2O)c(=O)n1	µM	2.42
Nc1ncnc2c1ncn2[C@@H]1O[C@H](COP(=O)(O)OP(=O)(O)O)[C@H]2O[C@@H](Cc3ccccc3)O[C@H]21	µM	13.9

EC50 for P2Y purinoceptor 2 (Homo sapiens) with input O=c1ccn([C@@H]2O[C@H](COP(=O)(O)OP(=O)(O)OP(=O)(O)OP(=O)(O)OC[C@@H]3O[C@H](n4ccc(=O)[nH]c4=O)[C@@H](O)[C@H]3O)[C@H]3OC(/C=C/c4ccccc4)O[C@H]32)c(=O)[nH]1 (stereo in doubt; 24) equals 0.155
